system: NCI-H460 lung
Field 'call' accepts active, inactive

These recorded examples may help you get a feel for the data.
                                   compound  label_class
0  CC(=O)c1nc(-c2ccc(C[C@@H](CNC(=O)CN(C)C)NC(=O)c3ccc(OC(C)C)c(Cl)c3)cc2)cn1C       active
1  Cc1cc(C)c(-c2c(O)c(Br)c(-c3c(C)cc(C)c(Br)c3C)c(O)c2Br)c(C)c1Br     inactive
2  COc1ccc(/C=C(\C#N)c2cc(OC)c(OC)c(OC)c2)cc1       active
3  N#C/C(=C/C=C/c1cccc(Cl)c1)S(=O)c1ccccc1 (stereo not given)     inactive
4  C=C(CN1CCc2ccccc2C1)c1ccc(CCCC(=O)Nc2ccccc2N)cc1     inactive

Challenge: For CSCc1ncc(-c2ccc(C(F)(F)F)cc2)c(NC2CCCCCC2)n1 , what call appears in the results of this test?
Response given: inactive

Challenge: For COc1cc(C=NCC(=O)CSC(c2ccccc2)c2ccccc2)ccc1O , what call appears in the results of this test?
Response given: inactive

Challenge: For COc1ccc2c(c1)[n+](=O)c(/C=C/C(=O)c1cc(OC)c(OC)c(OC)c1)c(C)n2[O-] , what call appears in the results of this test?
Response given: inactive

Challenge: For CC(C)(O)c1cc(Nc2cc(Oc3cn(C4CC4)nc3C3CCOCC3)ccn2)ccn1 , what call appears in the results of this test?
Response given: inactive

Challenge: For O=C(OCC1=CC(=O)c2ccccc2C1=O)c1ccccc1 , what call appears in the results of this test?
Response given: inactive
